Test system: brain cancer cell lines
Assay: Cell based assay, cell viability (CellTiter-Glo), brain cancer cell lines
Details: Homo sapiens, U138-MG; U-138 MG cell line; read-out: IC50, Brain cancer cell line U-138 MG
Provide the recorded IC50 for the entries that follow.

MOLECULE	IC50
CC(=O)c1c([S+]([O-])CN2C(=O)c3ccccc3C2=O)[nH]c2c(Cl)ccc(Cl)c2c1=O (stereo not drawn)	> 10 µM
CC(=O)c1c([S+]([O-])Cc2ccccc2)nc2c(Br)ccc(Cl)c2c1O (stereo not drawn)	> 10 µM

Here is another molecule to look at.
(Q) Give a short answer stating reported IC50 for CC(=O)c1c(SC(C)C)[nH]c2c(Br)ccc(Cl)c2c1=O .
(A) > 10 µM

---

Provide the recorded IC50 for the entries that follow.
Tested on: prostate cancer cell lines (e.g. DU145/TXR)
Assay: Cell based assay, cell viability (CellTiter-Glo), prostate cancer cell lines
Conditions: Homo sapiens, PC-3 cells, 72 hours treatment, final concentration 0 to 2 μM, read-out: IC50, prostate cancer cell line PC-3

Recorded IC50, per entry:
COMPOUND	EXPERIMENTAL_TARGET	IC50
CSc1c(C(C)=O)c(=O)c2c(Cl)ccc(Br)c2n1S(C)(=O)=O [Compound 35]	prostate cancer cell lines (e.g. DU145/TXR)	> 2000 nM
CC(=O)c1c([S+]([O-])Cc2ccc(SC(F)(F)F)cc2)[nH]c2c(Br)ccc(Cl)c2c1=O (centres unmarked) [Compound 56]	prostate cancer cell lines (e.g. DU145/TXR)	1300 nM
CC(=O)c1c([S+](C)[O-])n(C(C)=O)c2c(Br)ccc(Cl)c2c1=O (centres unmarked) [Compound 19]	prostate cancer cell lines (e.g. DU145/TXR)	> 2000 nM
CSc1c(C(C)=O)c(=O)c2c(Cl)ccc(Br)c2n1S(=O)(=O)c1ccc([N+](=O)[O-])cc1 [Compound 38]	prostate cancer cell lines (e.g. DU145/TXR)	> 2000 nM
CC(=O)c1c([S+](C)[O-])n(S(=O)(=O)C(F)(F)F)c2c(Br)ccc(Cl)c2c1=O (centres unmarked) [Compound 36]	prostate cancer cell lines (e.g. DU145/TXR)	> 2000 nM

Okay, here is my list. What is IC50 for each of these?
1. CC(=O)c1c([S+]([O-])Cc2ccc(OC(F)(F)F)cc2)[nH]c2c(Br)ccc(Cl)c2c1=O (centres unmarked) [Compound 71]
2. CC(=O)c1c([S+](C)[O-])n(C(=O)c2ccc(Br)cc2)c2c(Br)ccc(Cl)c2c1=O (centres unmarked) [Compound 9]
3. CC(=O)c1c(S/C=C\C(=O)O)[nH]c2c(Br)ccc(Cl)c2c1=O [Compound 67]

(A)
1. 1700 nM
2. 1470 nM
3. > 2000 nM

---

Test system: colorectal cancer cell lines (e.g. DLD-1, HCT 116, SW620, HCT-15, HCT-8, RKO)
Experiment: Cell based assay, cell viability (CellTiter-Glo), colorectal cancer cell lines
Conditions: Homo sapiens, SW-620, SW620, 72 hours treatment, read-out: IC50, colorectal cancer cell line SW620
From the text: Commercially available bladder cancer, prostate cancer, lung cancer, breast cancer, blood cancer, pancreatic cancer, colorectal cancer, brain cancer, neuroblastoma, melanoma, liver cancer, cervical carcinoma, ovarian cancer, renal cancer, and papilloma cell lines were each treated with trypsin-EDTA and cultured, followed by being seeded in each well of a 96 well plate. […]
Provide the recorded IC50 for the entries that follow.

COMPOUND	IC50
CC(=O)c1c(S(C)(=O)=O)n(C(=O)c2ccc(Br)cc2)c2c(Br)ccc(Cl)c2c1=O	> 2 µM

Okay, here is my list. What is IC50 for each of these?
1. CC(=O)c1c([S+]([O-])C(C)C)[nH]c2c(Br)ccc(Cl)c2c1=O (centres unmarked)
2. CSc1[nH]c2ccc(F)cc2c(=O)c1C(C)=O
3. CC(=O)c1c(SCc2ccccc2)[nH]c2c(Br)ccc(Cl)c2c1=O
4. CC(=O)c1c([S+]([O-])Cc2ccc(Cl)cc2)[nH]c2c(Br)ccc(Cl)c2c1=O (centres unmarked)

(A)
1: > 2 µM; 2: > 2 µM; 3: > 2 µM; 4: > 2 µM

---

Test system: bladder cancer cell lines
Experiment: Cell based assay, cell viability (CellTiter-Glo), bladder cancer cell lines
Settings: Homo sapiens, T-24; T24 cells; 72 hours treatment; 0 to 2 μM; CellTiter-Glo; read-out: IC50, bladder cancer cell line T24
EXPERIMENTAL_READOUT: IC50 (nM)
One number for each entry, in nM.

Okay, here is my list. What is IC50 for each of these?
1. CC(=O)c1c([S+]([O-])Cc2ccc(C(F)(F)F)o2)[nH]c2c(Br)ccc(Cl)c2c1=O (centres unmarked)
2. COC(=O)c1ccc(C[S+]([O-])c2[nH]c3c(Cl)ccc(Cl)c3c(=O)c2C(C)=O)o1 (centres unmarked)

(A)
1250
1750

Okay, here is my list. What is IC50 for each of these?
1. CC(=O)c1c([S+]([O-])Cc2cccnc2)[nH]c2c(Br)ccc(Cl)c2c1=O (centres unmarked)
2. CC(=O)c1c([S+]([O-])Cc2ccc([N+](=O)[O-])cc2)[nH]c2c(Br)ccc(Cl)c2c1=O (centres unmarked)
3. CC(=O)c1c([S+]([O-])Cc2cc(C)on2)[nH]c2c(Br)ccc(Cl)c2c1=O (centres unmarked)
4. CC(=O)c1c([S+]([O-])Cc2ccc([S+]([O-])C(F)(F)F)cc2)[nH]c2c(Br)ccc(Cl)c2c1=O (centres unmarked)

(A)
1. 1030
2. 1030
3. 890
4. 1040

---

Test system: lung cancer cell lines (e.g. NCI-H23, NCI-H1229)
Assay: Cell based assay, cell viability (CellTiter-Glo), lung cancer cell lines
Settings: Homo sapiens; Lung cancer cell line A549; 72 hours; cell viability (CellTiter-Glo); read-out: IC50, A549
pIC50: −log10 of the molar value.
EXPERIMENTAL_READOUT: pIC50

(Q) Give a short answer stating reported pIC50 for CC(=O)c1c([S+]([O-])Cc2cnc3[nH]ccc3c2)[nH]c2c(Br)ccc(Cl)c2c1=O (stereo not shown) .
(A) < 5.70

---

Tested on: colorectal cancer cell lines (e.g. DLD-1, HCT 116, SW620, HCT-15, HCT-8, RKO)
Assay: Cell based assay, cell viability (CellTiter-Glo), colorectal cancer cell lines
Details: RKO, 72 hours treatment, read-out: IC50, colorectal cancer cell line RKO
EXPERIMENTAL_READOUT: IC50

COMPOUND	IC50
CC(=O)c1c(SC(C)C)[nH]c2c(Br)ccc(Cl)c2c1=O	> 2000 nM
CC(=O)c1c([S+]([O-])Cc2cccc(C#N)c2)[nH]c2c(Br)ccc(Cl)c2c1=O (stereo not shown)	1090 nM
CC(=O)c1c([S+]([O-])c2ccccc2)[nH]c2c(Br)ccc(Cl)c2c1=O (stereo not shown)	> 2000 nM

(Q) Find IC50 for CC(=O)c1c(SCc2cc(Cl)ccc2Cl)[nH]c2c(Br)ccc(Cl)c2c1=O on colorectal cancer cell lines (e.g. DLD-1, HCT 116, SW620, HCT-15, HCT-8, RKO) and write it down.
(A) > 2000 nM

---

Test system: colorectal cancer cell lines (e.g. DLD-1, HCT 116, SW620, HCT-15, HCT-8, RKO)
Assay: Cell based assay, cell viability (CellTiter-Glo), colorectal cancer cell lines
Conditions: Homo sapiens, HCT-8, 72 hours treatment, read-out: IC50, colorectal cancer cell line HCT-8
pIC50: −log10 of the molar value.
EXPERIMENTAL_READOUT: pIC50

Recorded pIC50, per entry:
COMPOUND	pIC50
CC(=O)c1c([S+]([O-])Cc2c(F)cccc2Cl)[nH]c2c(Br)ccc(Cl)c2c1=O (stereo not drawn) [Compound 74]	5.70
CC(=O)c1c([S+](C)[O-])n(C(=O)c2ccc(Br)cc2)c2c(Br)ccc(Cl)c2c1=O (stereo not drawn) [Compound 9]	5.76

Okay, here is my list. What is pIC50 for each of these?
1. CC(=O)c1c([S+]([O-])Cc2c(F)c(F)c(F)c(F)c2F)[nH]c2c(Br)ccc(Cl)c2c1=O (stereo not drawn) [Compound 78]
2. COc1ccccc1Sc1[nH]c2c(Br)ccc(Cl)c2c(=O)c1C(C)=O [Compound 14]
3. CC(=O)c1c(SCc2cccc(C#N)c2)[nH]c2c(Br)ccc(Cl)c2c1=O [Compound 27]
4. CC(=O)c1c(SCc2cccc(I)c2)[nH]c2c(Br)ccc(Cl)c2c1=O [Compound 47]

(A)
["< 5.70", "< 5.70", "< 5.70", "< 5.70"]

Okay, here is my list. What is pIC50 for each of these?
1. CC(=O)c1c(SCc2ccc([N+](=O)[O-])cc2)[nH]c2c(Br)ccc(Cl)c2c1=O [Compound 32]
2. CC(=O)c1c([S+]([O-])Cc2ccc(C(F)(F)F)o2)[nH]c2c(F)ccc(F)c2c1=O (stereo not drawn) [Compound 81]
3. CC(=O)c1c([S+]([O-])Cc2ccc(C(F)(F)F)cc2)[nH]c2c(Br)ccc(Cl)c2c1=O (stereo not drawn) [Compound 70]

(A)
1: < 5.70; 2: < 5.70; 3: 5.81
